Biological target: Induced myeloid leukemia cell differentiation protein Mcl-1 (Homo sapiens) (UniProt Q07820)
Sequence (Q07820 whole entry, looked up): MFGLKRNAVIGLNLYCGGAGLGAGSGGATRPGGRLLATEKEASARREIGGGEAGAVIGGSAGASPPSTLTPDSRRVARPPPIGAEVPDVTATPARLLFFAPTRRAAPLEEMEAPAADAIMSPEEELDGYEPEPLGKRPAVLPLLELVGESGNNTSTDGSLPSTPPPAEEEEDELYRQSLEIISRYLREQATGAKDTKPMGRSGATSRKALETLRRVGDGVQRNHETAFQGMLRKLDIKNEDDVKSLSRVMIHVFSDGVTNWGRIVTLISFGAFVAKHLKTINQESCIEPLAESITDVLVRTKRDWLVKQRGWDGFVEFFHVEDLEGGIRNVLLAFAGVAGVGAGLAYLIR
Assay: blockers of Bid binding to Mcl-1 – biochemical, TR-FRET, dose response (AID 1418)
Conditions: Mcl-1/Bid peptide binding, TR-FRET (europium/Dy647), 2 hr
Active and inactive are the calls of the source. How the calls were made is not given here.
Possible outcomes: active, inactive

compound	label value
O=C1C(C=NCc2ccncc2)=C(O)c2ccccc21	inactive
C=C1C(=O)[C@@]23[C@H](O)C[C@@H]4C(C)(C)CC[C@H](O)[C@]4(C)[C@@H]2C[C@H](O)[C@@H]1[C@H]3O	inactive
COc1ccc(NC(=O)CN2CCOCC2)cc1	inactive
O=C(Nc1ccc(-c2nc3ccc(NC(=O)c4cccs4)cc3[nH]2)cc1)c1cccs1	active
CN1CCN2c3ccc(N)cc3CC3(C(=O)NC(=O)NC3=O)C2C1 (stereo not given)	active
Cc1ccccc1NCC(=O)N/N=C/C(Br)=C/c1ccccc1	inactive
Cc1csc2ncnc(N3CCN(C(=S)Nc4ccc(F)cc4F)CC3)c12	inactive
COc1cccc(C(=O)Nc2ccc3nc(N4CCN(c5ncccn5)CC4)cc(C)c3c2)c1OC	active
COc1ccccc1C1CC(c2ccccc2)Nc2ncnn21 (stereo not given)	inactive
CN(C)c1ccc(-c2nn3c(-c4ccc(Cl)cc4Cl)nnc3s2)cc1	active

====

Target: Induced myeloid leukemia cell differentiation protein Mcl-1 (Homo sapiens)
Test: blockers of Bid binding to Mcl-1 – biochemical, TR-FRET, dose response (AID 1418)
Conditions: Mcl-1/Bid peptide binding, TR-FRET (europium/Dy647), 2 hr
Calls of active or inactive are those of the source. No rule for the calls is given here.
Possible outcomes: active, inactive

structure as smiles	label value
Cc1ccc(COc2ccc(C(=O)NN)cc2)cc1	inactive
O=c1[nH]c(=O)n(CCc2ccccc2)c(O)c1C=NCc1ccc2c(c1)OCO2	inactive
Cc1ccc(-c2nn(CC(=O)NCc3cc(-c4nn(C)c(=O)c5ccccc45)ccc3C)c(=O)c3ccccc23)cc1	active
Cc1c([N+](=O)[O-])c(C(=O)Nc2ccc3c(c2)OCCO3)nn1C	inactive
O=C(N[C@@H](Cc1ccccc1)C(=O)O)c1ccncc1	inactive

====

Biological target: Induced myeloid leukemia cell differentiation protein Mcl-1 (Homo sapiens)
Experiment: blockers of Bid binding to Mcl-1 – biochemical, TR-FRET, dose response (AID 1418)
Details: Mcl-1/Bid peptide binding, TR-FRET (europium/Dy647), 2 hr
Active and inactive are the calls of the source. How the calls were made is not given here.
Possible outcomes: 1 (yes) = active, 0 (no) = inactive

compound	label value
Brc1cccc(OCCOCCn2ccnc2)c1	0 (no)
Clc1ccc(OCCN2CCCCC2)c(Cl)c1	0 (no)
COc1cc(/C=C2/SC(=S)NC2=O)ccc1OS(=O)(=O)c1ccc(C)cc1	1 (yes)
COc1ccccc1NC(=O)CSc1nnnn1-c1ccc2c(c1)OCO2	0 (no)
COc1ccc(NC(=O)c2[nH]ncc2[N+](=O)[O-])cc1	0 (no)
Cc1ccc(S(=O)(=O)N2CCOCC2)cc1C(=O)N1C(=O)c2cccc(N)c2C1=O	0 (no)
Cc1sc(NC(=O)c2ccccc2)c(C(=O)N2CCN(C)CC2)c1C	0 (no)
CCCCN(C)C(=O)c1coc(=O)c2ccccc12	0 (no)
O=C(NC1CCCC1)c1csc2c1CCCC2	0 (no)
COC(=O)/C(=N/Nc1ccccc1)N1CCCc2ccccc21	0 (no)
N#Cc1ccccc1Cn1c(-c2cscn2)nc2ccccc21	0 (no)
COC(=O)CN1C(C)=Nc2ccc(Br)cc2C1c1ccccc1 (stereo not drawn)	0 (no)
COc1ccc(C(=O)/C=C/c2ccc(N3CCCCC3)c([N+](=O)[O-])c2)cc1	0 (no)
Cc1ccccc1NC(=O)c1c(C)[nH]c(=S)c(C#N)c1-c1ccc(Cl)cc1	0 (no)
CC1=C(C#N)C(=O)NC(=O)/C1=C\c1ccc(-c2ccc(C)cc2[N+](=O)[O-])o1	1 (yes)
CN(CCOC(=O)C1c2ccccc2Oc2ccccc21)C(C)(C)C	0 (no)
CC1(C)Oc2ccc3ccc(=O)oc3c2C[C@H]1O	0 (no)
COc1ccc2nc(N3C(=O)/C(=C/c4ccc(Cl)cc4)NC3=S)sc2c1	1 (yes)
CNc1ccc(Br)cc(C(=O)/C=C/c2cccc(Cl)c2Cl)c1=O	1 (yes)
Cc1ccc(/C=N/NC(=O)c2cc3c(ccc4ccccc43)o2)cc1[N+](=O)[O-]	1 (yes)
CCCCCC#CCC#CCC#CCC#CCCCC(=O)O	1 (yes)
CN(C)c1ccc(/C=c2\sc3nc(-c4ccccc4)nn3c2=O)cc1	1 (yes)
Cc1ccc(CSc2nnc(SCC(=O)N/N=C/c3c[nH]c4ccccc34)s2)cc1	1 (yes)

====

Target: Induced myeloid leukemia cell differentiation protein Mcl-1 (Homo sapiens)
Experiment: blockers of Bid binding to Mcl-1 – biochemical, TR-FRET, dose response (AID 1418)
Conditions: Mcl-1/Bid peptide binding, TR-FRET (europium/Dy647), 2 hr
Calls of active or inactive are those of the source. The rule behind the calls is not given here.
Possible outcomes: active, inactive

compound	label value
COc1cc(/C=C2/SC(=S)N(CC3CCCO3)C2=O)ccc1O (configuration not stated)	inactive
CC(C)N1C(=O)/C(=C/c2nc3ccccc3c(=O)n2-c2ccccc2)c2ccccc21	active
CC1(c2cccc3ccccc23)NC(=O)N(CC(=O)NC2CCS(=O)(=O)C2)C1=O (configuration not stated)	inactive
CN1C(=O)C(=Cc2sc(=O)n(-c3ccccc3)c2N2CCCCC2)C(=O)N(C)C1=O	inactive
Cc1ccc(OCC(=O)NCc2ccco2)c([N+](=O)[O-])n1	inactive
O=C(Cn1nc(C(=O)O)c2ccccc2c1=O)Nc1ccc2c(c1)C(=O)c1ccccc1C2=O	active
COc1ccc(N2CCN(C(=O)c3ccc4c(c3)OCO4)CC2)cc1	inactive
CCOc1ccc(-c2nnc(-c3ccccc3)n2-c2ccccc2)cc1	inactive
O=C1CSC(c2cccnc2)N1c1ccc(Cl)cc1 (configuration not stated)	inactive
O=C(Nc1nccs1)C1CC(=O)N(Cc2ccco2)C1 (configuration not stated)	inactive
Cn1c2c(c(=O)n(C)c1=O)C1c3cc(Cl)ccc3OCC1CO2 (configuration not stated)	inactive
Cc1nc(N)sc1-c1csc(Nc2ncccn2)n1	active
CCSC1=NC2(CCCCC2)Nc2sc3c(c21)CCCC3	active
Cc1nc(C)n(CC(O)COc2ccc3c(c2)CCC3)n1 (configuration not stated)	inactive
CCN1CCc2c(OCc3ccc(C(=O)OC)o3)cccc2C1=O	inactive
C=CCn1c(SCc2ccc([N+](=O)[O-])cc2)nnc1C(C)NC(=O)c1ccccc1 (configuration not stated)	inactive
Cn1c(SCc2nc3ccccc3s2)nnc1-c1ccc2c(c1)OCO2	inactive
Cc1ccc(C(=O)CN(C(=O)c2ccc(Cl)c(Cl)c2)N2C(=O)C3C4C=CC(C4)C3C2=O)cc1 (configuration not stated)	inactive
CCc1ccc(NC(=S)NC2CC3CCC(C2)N3Cc2ccco2)cc1 (configuration not stated)	inactive
Cc1ccc(S(=O)(=O)N/N=C/c2cnn(C)c2C)cc1	inactive
O=c1cc(-c2ccccc2Cl)oc2c(NS(=O)(=O)c3cc(Cl)cc(Cl)c3O)ccc(O)c12	active
O=C(Nc1cccc(-c2csc(-c3ccccc3)n2)c1)c1cccs1	inactive

====

Molecular target: Induced myeloid leukemia cell differentiation protein Mcl-1 (Homo sapiens)
Assay: blockers of Bid binding to Mcl-1 – biochemical, TR-FRET, dose response (AID 1418)
Settings: Mcl-1/Bid peptide binding, TR-FRET (europium/Dy647), 2 hr
Calls of active or inactive are those of the source. How the calls were made is not given here.
Possible outcomes: 1 (yes) = active, 0 (no) = inactive

compound	label value
CCOc1cc(C(=S)N2CCOCC2)ccc1O	0 (no)
O=C(CN1C(=O)/C(=C2\SC(=S)N(C3CCS(=O)(=O)C3)C2=O)c2ccccc21)Nc1ccc(F)cc1 (stereo not drawn)	1 (yes)
O=C(Cc1sc(-c2ccccc2Cl)nc1-c1ccccc1)Nc1ccccc1	0 (no)
O=C(NCc1nnc(SCC(=O)N2CCOCC2)o1)c1c(F)cccc1Cl	0 (no)
N=C1/C(=C\c2ccc(-c3ccc(C(=O)O)cc3)o2)C(=O)N=C2SC=C(c3ccccc3)N12	1 (yes)
O=C(NN1C(=O)C2C(C1=O)C1C=CC2C12CC2)c1ccc(Cl)cc1 (stereo not drawn)	0 (no)
CCCN(CCC)CCNC(=O)C1CC(=O)N(c2ccc(OC)cc2)C1c1ccc(OC)cc1 (stereo not drawn)	0 (no)
CCOc1cc(C=C2C(=O)c3ccccc3C2=O)ccc1OCC(=O)Nc1ccc(C)cc1	1 (yes)
Cc1c(C(=O)OCc2ccccc2)[nH]c2c1C(=O)CC(c1ccco1)C2 (stereo not drawn)	0 (no)
COc1cc2c(cc1OC)-c1cc(NC3CCCCCCC3)nc(=O)n1CC2	0 (no)
Cc1ccnc(N/C=C(\C#N)c2nc(-c3cccc(Br)c3)cs2)c1	1 (yes)
COc1ccccc1OCCOc1ccc(/C=C2/C(=N)N3OC(C)=CC3=NC2=O)cc1OC	1 (yes)
COc1cccc2c1c(NC(=O)Nc1ccc(F)cc1F)nn2C	0 (no)
COCCCNCC(=O)Nc1sc(C)c(C)c1C(=O)OC	0 (no)
CC1(c2ccccc2)CC(C)(C)N2C(=O)/C(=C3\SC(=S)NC3=O)c3cccc1c32 (stereo not drawn)	1 (yes)
COC(=O)C1=CN(CC2CCCO2)C=C(C(=O)OC)C1c1ccsc1 (stereo not drawn)	0 (no)
O=C(c1ccccc1)N1CCN(C2CCCCCC2)CC1	0 (no)
C=CCn1c(O)c(N=NC(=O)CNC(=O)/C=C/c2ccc(OC)cc2)c2ccccc21	0 (no)
CC(=O)c1cccc(NC(=O)C2CCN(C(=O)c3ccc([N+](=O)[O-])cc3)CC2)c1	0 (no)
O=C(CCCN1C(=O)c2ccccc2C1=O)Nc1ccccc1	0 (no)
O=C(Cc1ccc(F)cc1)Nc1nnc(SCC(=O)NC2CCCC2)s1	0 (no)
O=c1c(CN2CCN(Cc3ccccc3)CC2)coc2ccc(Cl)cc12	0 (no)
O=C(COc1ccc2c(c1)CCC2)N1CCc2ccccc21	0 (no)
CC(=O)c1ccc(Oc2ccc(C(C)=O)cc2)cc1	0 (no)
Cc1nc(SCC(=O)Nc2cc(Cl)ccc2[N+](=O)[O-])nc(C)c1C	0 (no)
COc1ccc(CCNc2nc(-c3sc(C)nc3C)cs2)cc1OC	0 (no)
OCC1CCCN(c2nc(CN3CCCCC3)nc3scc(-c4ccccc4)c23)C1 (stereo not drawn)	0 (no)
COc1ccc(CCNc2nc(-c3cccnc3)cs2)cc1OC	0 (no)
O=C(Oc1cccc(N2C(=O)C3C4c5ccccc5C(c5ccccc54)C3C2=O)c1)c1ccco1 (stereo not drawn)	0 (no)
Oc1[nH]c2ccccc2c1/C=N/N1CCCCC1	0 (no)
Cc1sc2ncnc(OCC(=O)Nc3ccc4c(c3)OCCO4)c2c1C	0 (no)
O=C(O)CCCN1C(=O)/C(=C\c2ccc(-c3nc4ccccc4s3)o2)SC1=S	1 (yes)
COc1ccc(C(=O)Nc2nc3cc(OC)c(OC)cc3c(=O)[nH]2)cc1	0 (no)
CCOC(=O)c1c(C)oc2c1c(C(c1ccncc1)N1CCOCC1)c(O)c1ccccc12 (stereo not drawn)	1 (yes)
CCN(CC)c1ccc(CNc2nc3ccccc3n2C)cc1	0 (no)
O=c1c2cnn(-c3ccccc3)c2nc(-c2cccs2)n1-c1cccc(Cl)c1	0 (no)
CC(Sc1nnc2c(n1)C1CCC2(C)C1(C)C)C(=O)Nc1ccccc1 (stereo not drawn)	0 (no)
Nc1c(C(=O)NC2CC2)sc2nc3c(c(-c4ccco4)c12)CC/C3=C/c1ccco1	0 (no)
COc1ccc(-n2cccc2/C=C2\C(=N)N3N=C(c4ccco4)SC3=NC2=O)cc1	1 (yes)
NC(=O)NC(CC(=O)NCCc1ccc(S(N)(=O)=O)cc1)c1ccc(Cl)cc1 (stereo not drawn)	0 (no)
COc1ccc2nc(-n3c(O)c(C4=c5ccccc5=NC4=O)[nH]c3=S)sc2c1	1 (yes)
C/C(=N\Nc1cccc(C(=O)O)c1)c1ccc2c(c1)Nc1ccccc1S2	1 (yes)
O=C(O)C1Nc2c(O)cc(Cl)c([N+](=O)[O-])c2C2C=CCC12 (stereo not drawn)	1 (yes)

Measured values drawn from PubChem BioAssay AID1418 for this set.
